target: furin, P09958; test: furin cleavage Z-score vs untreated control; higher = more cleavage, active = 3.5 or more, inactive = 1 or less, 8 variable residues between constant flanks; settings: 15 min;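 note: purified furin at 1:10 enzyme:substrate in 50 mM HEPES pH 7.5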
Sequence (P09958 whole entry): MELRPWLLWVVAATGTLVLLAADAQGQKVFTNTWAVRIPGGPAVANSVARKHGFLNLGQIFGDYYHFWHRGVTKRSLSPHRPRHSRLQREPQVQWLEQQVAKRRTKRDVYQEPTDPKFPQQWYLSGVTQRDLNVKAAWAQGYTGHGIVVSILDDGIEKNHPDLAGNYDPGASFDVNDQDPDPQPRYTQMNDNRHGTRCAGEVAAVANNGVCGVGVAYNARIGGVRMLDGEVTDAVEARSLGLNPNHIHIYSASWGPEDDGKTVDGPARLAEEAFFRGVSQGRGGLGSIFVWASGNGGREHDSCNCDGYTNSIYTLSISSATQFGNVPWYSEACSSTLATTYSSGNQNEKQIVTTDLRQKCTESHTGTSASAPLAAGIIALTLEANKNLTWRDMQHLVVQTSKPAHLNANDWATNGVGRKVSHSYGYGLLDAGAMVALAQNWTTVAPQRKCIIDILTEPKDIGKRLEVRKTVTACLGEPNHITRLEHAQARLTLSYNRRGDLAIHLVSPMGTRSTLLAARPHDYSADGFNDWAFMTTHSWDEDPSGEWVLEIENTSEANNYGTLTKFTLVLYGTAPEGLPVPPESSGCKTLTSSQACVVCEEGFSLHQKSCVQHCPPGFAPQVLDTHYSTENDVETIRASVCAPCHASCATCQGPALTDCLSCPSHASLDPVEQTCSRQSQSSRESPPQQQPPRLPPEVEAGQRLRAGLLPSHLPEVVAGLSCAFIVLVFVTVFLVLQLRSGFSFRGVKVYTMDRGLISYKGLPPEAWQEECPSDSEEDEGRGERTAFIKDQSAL
The list shows a part of the results. The true hit rate is not given.
Assign Y to entries whose furin cleavage Z-score meets or exceeds -0.5; assign N to the rest.

### Prompt Quick check: does CARSKRSALRAGNASASA [FS-1930] have furin cleavage Z-score greater than or equal to -0.5?
### Response Y

### Prompt Quick check: does CALTKRLKRHAGNASASA [FS-689] have furin cleavage Z-score greater than or equal to -0.5?
### Response Y

### Prompt Quick check: does CAWFCLLLLAAGNASASA [HC1657] have furin cleavage Z-score greater than or equal to -0.5?
### Response Y

### Prompt Quick check: does CAENLVILNAAGNASASA [HC535] have furin cleavage Z-score greater than or equal to -0.5?
### Response N

### Prompt Quick check: does CAARVCSCLWAGNASASA [HC525] have furin cleavage Z-score greater than or equal to -0.5?
### Response N

### Prompt Quick check: does CALNPREKKDAGNASASA [FS-941] have furin cleavage Z-score greater than or equal to -0.5?
### Response Y
